System: SK-MEL-28 melanoma
experiment-description: NCI-60 one-dose screen, 48 h (100 = growth as untreated, 0 = no growth, -100 = all killed)
condition: 10 µM
Compounds without any hit were thinned out: in the full panel of roughly 83,000, 20% have a hit.
Could you label it yes (1) if measured growth is 90% or higher, and no (0) otherwise?

Examples from the recorded data:
compound	classification
O=C(NCc1cn(Cc2cccc(Oc3ccccc3)c2)nn1)c1cccnc1Nc1ccccc1	no (0)
COc1cc2ccnc(C=O)c2cc1OC	no (0)
COc1ccc(/C=C2\CCC3C(CCCC34OCCO4)C2=O)cc1 (stereo not given)	yes (1)
COc1ccc(-c2nnc(N3CCN(C(=O)CN4CCN(c5ccc(Cl)cc5)CC4)CC3)nc2-c2ccc(OC)cc2)cc1	no (0)
CCOC(=O)Cn1nnc(-c2ccc(OCc3ccccc3F)cc2)n1	no (0)

Input line: Given `COc1ccc(-c2[nH]ncc2-c2cc(OC)c(OC)c(OC)c2)cc1` , state whether its growth is at least 90%.
Output line: no (0)

Input line: Test whether the compound `C#CCn1c(-c2cccc(OCCCCl)c2)nc2c1c(=O)n(C)c(=O)n2C` records growth of 90% or higher.
Output line: yes (1)

Input line: // inclusive: growth at least 90%? input: `COC(=O)c1c(C)nc(Nc2nc3ccccc3s2)nc1-c1ccc(Cl)cc1Cl`
Output line: yes (1)

Input line: Is reported growth greater than or equal to 90% here: `NC(N)=NS(=O)(=O)c1ccc(Nc2ccc3nnc(-c4ccncc4)n3n2)cc1`
Output line: yes (1)

---

Test system: UO-31 renal
experiment-description: NCI-60 one-dose screen, 48 h (100 = growth as untreated, 0 = no growth, -100 = all killed)
condition: 10 µM
Compounds without any hit were thinned out: in the full panel of roughly 83,000, 20% have a hit.
assay-readout: growth (%)
The figure you give is taken to be in %; do not add the unit.

Recorded results for 6 compounds are shown here.
compound	measurement-unit	growth
Oc1ccccc1-c1nnc(Cn2c(Cc3cccc4ccccc34)nc3ccccc32)o1	%	63
CCCc1c(CC)c(=N)c2ccccc2n1C	%	38.3
Cc1[nH]nc2c(=S)[nH]c(=O)[nH]c12	%	93.4
CCC(O)c1ccc(Br)cc1NC(=O)c1cccc(Cl)c1 (stereo unspecified)	%	-11.6
CC1(CO)CCCC12OCCO2 (stereo unspecified)	%	93.7
c1ccc(COCC[P+](c2ccccc2)(c2ccccc2)c2ccccc2)cc1	%	46.9

Value of measured growth for the entry CC(=O)Nc1ccc2c(c1)C(N1CC3CCC(CC3)C1)c1ccccc1-2 (stereo unspecified) : 66.7

Record summary for `C/C(=N\NC(=S)N1CCCC1)c1ccccn1` : reported growth = -3.72

For reference, reported growth for `COc1cc(Cn2c(-c3ccccc3)c(Cl)c3c2-c2oncc2CC3)cc(OC)c1` stands at -7.99

growth reading for COc1cccc2c1C(=O)c1c(O)c3c(c(O)c1C2=O)C[C@@](O)(C(=O)COC(=O)c1ccccc1)C[C@@H]3OC1CC(N)C(O)C(C)O1 (stereo partly specified) : -93.1

Reported growth ( `COc1cc2c3c(cccc3c1)C(=O)N(CCN1CCCC1)C2=O` ) = -3.17

---

System: MCF7 breast
experiment-description: NCI-60 one-dose screen, 48 h (100 = growth as untreated, 0 = no growth, -100 = all killed)
condition: 10 µM
The panel holds about 83,000 compounds, 20% with a hit somewhere; the sample as a whole holds those more often. The source made the active and inactive calls. The calls were made as follows: active = growth percent below 10; inactive = the rest.
assay-readout: growth

Below, each entry is followed by its recorded growth result.
molecule	measured-value
COc1ccc(C(=O)/C=C/c2cc(-c3ccc(OC)c(OC)c3)n[nH]2)cc1OC	4.18% (active)
Nc1nc(SCC#CCCl)c2[nH]cnc2n1	34.6% (inactive)
Cc1nc2scc(-c3ccc(Cl)cc3)n2c(=O)c1CCN1CCOCC1	90.2% (inactive)
O=C(Nc1ccc(Oc2ccc(Nc3nc4ccccc4s3)cc2)cc1)Nc1ccc(Cl)c(Cl)c1	29.3% (inactive)
O=C1NN(c2ccccc2)C(c2cccnc2)=N/C1=C\c1cccnc1	92.1% (inactive)
COC(=O)CCCCCCCCC(C)c1ccc(C(C)=O)cc1 (configuration not stated)	118% (inactive)

growth recorded for this molecule, `C=CCN1C(=O)/C(=C\c2ccc3c(c2)CCC3)SC1=S` , is 103% (inactive)

Kindly note the recorded growth for `Oc1ccccc1-c1nnc(Cn2c(Cc3cccc4ccccc34)nc3ccccc32)o1` , which is 102% (inactive)

# molecule `c1ccc(COCC[P+](c2ccccc2)(c2ccccc2)c2ccccc2)cc1` ; its growth = 4.89% (active)
